Catalogue of MIC values
# Tested on: A. baumannii CDC-0036
# TEST: microbe, parasite or virus in culture
# Format: cell-based
# CONDITION NOTES: Acinetobacter baumannii, CDC0036, read-out: MIC, A. baumannii CDC-0036

Use the examples below as a reference point.
{"COMPOUND": "O=C(NCCN1CCN(C(=O)NC(C(=O)N[C@H]2Cc3ccc(F)c(C(=O)O)c3OB2O)c2cc(F)c(O)c(O)c2Cl)C(=O)C1=O)Nc1cccc(O)c1 (some centres unmarked)", "ATTRIBUTE MEASURED": "MIC", "RESULT": "8 to 16 µg/mL"}
{"COMPOUND": "O=C(NCCCN1CCN(C(=O)NC(C(=O)N[C@H]2Cc3ccc(F)c(C(=O)O)c3OB2O)c2cc(F)c(O)c(O)c2Cl)C(=O)C1=O)c1ccc(F)c(O)c1 (some centres unmarked)", "ATTRIBUTE MEASURED": "MIC", "RESULT": "2 to 4 µg/mL"}
{"COMPOUND": "O=C(NCCCN1CCN(C(=O)NC(C(=O)N[C@H]2Cc3ccc(F)c(C(=O)O)c3OB2O)c2cc(F)c(O)c(O)c2Cl)C(=O)C1=O)c1ccc(O)c(F)c1F (some centres unmarked)", "ATTRIBUTE MEASURED": "MIC", "RESULT": "2 to 4 µg/mL"}
{"COMPOUND": "O=C(O)c1c(F)ccc2c1OB(O)[C@@H](NC(=O)[C@H](NC(=O)N1CCN(CCNC(=O)[C@@H]3CCCN3)C(=O)C1=O)c1cc(F)c(O)c(O)c1Cl)C2", "ATTRIBUTE MEASURED": "MIC", "RESULT": "2 to 4 µg/mL"}

Next:
// returns reported MIC for input `CN(CCN1CCN(C(=O)N[C@@H](C(=O)N[C@H]2Cc3ccc(F)c(C(=O)O)c3OB2O)c2cc(F)c(O)c(O)c2Cl)C(=O)C1=O)Cc1cccnc1` 2 to 4 µg/mL

# credit: patent US20240270762A1
